// data source = patent US9255110B2

# Target under test: UniProt:Q9NWZ3
# Assay method text: In vitro IRAK-4 kinase assay
# Condition summary: purified recombinant IRAK-4, 50 uM ATP, 33P peptide phosphorylation
pIC50: −log10 of the molar value.
We begin with a simple list: items and their reported pIC50.

[
  {
    "Compound": "O=C(Nc1cc(Cl)ccc1OC1CCC(O)CC1)c1cnn2cc(CO)cnc12 (stereo not drawn) [Example 133]",
    "pIC50": 5.65
  },
  {
    "Compound": "C=Cc1ccc(OC)c(NC(=O)c2cnn3cccnc23)c1 [Example 143]",
    "pIC50": 5.56
  },
  {
    "Compound": "Cc1ncoc1COc1ccc(Cl)cc1NC(=O)c1cnn2cccnc12 [Example 121]",
    "pIC50": 5.81
  }
]

* * *

# Target under test: IRAK-4 (Homo sapiens (Human))
# Sequence (Q9NWZ3 whole entry, species assumed): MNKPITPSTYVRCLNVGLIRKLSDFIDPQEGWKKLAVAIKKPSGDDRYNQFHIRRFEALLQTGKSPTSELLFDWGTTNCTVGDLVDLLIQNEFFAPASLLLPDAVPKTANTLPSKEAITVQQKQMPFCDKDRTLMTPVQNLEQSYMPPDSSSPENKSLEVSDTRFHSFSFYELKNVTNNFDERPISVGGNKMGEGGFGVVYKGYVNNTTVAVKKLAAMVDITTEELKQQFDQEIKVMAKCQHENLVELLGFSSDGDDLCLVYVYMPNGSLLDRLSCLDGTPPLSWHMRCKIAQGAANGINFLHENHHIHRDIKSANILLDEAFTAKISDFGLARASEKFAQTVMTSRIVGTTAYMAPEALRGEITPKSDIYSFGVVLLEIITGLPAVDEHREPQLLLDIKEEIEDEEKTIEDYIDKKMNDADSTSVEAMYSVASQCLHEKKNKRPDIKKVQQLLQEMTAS
# Assay method text: In vitro IRAK-4 kinase assay
# Condition summary: purified recombinant IRAK-4, 50 uM ATP, 33P peptide phosphorylation
Where a name gives a salt, the structure may show the parent alone.
# label = Condition met if IC50 < 2000 nM else Condition not met

[
  {
    "Molecule": "O=C(Nc1cc(Cl)ccc1OC1CCC(O)C1)c1csc2cncnc12 (stereo not drawn)",
    "Discrete label": "Condition met"
  },
  {
    "Molecule": "CC(O)C1CCN(c2ccc(Cl)cc2NC(=O)c2cnn3cccnc23)C1 (stereo not drawn)",
    "Discrete label": "Condition met"
  },
  {
    "Molecule": "COc1ccc(/C=C/CO)cc1NC(=O)c1cnn2cccnc12",
    "Discrete label": "Condition not met"
  },
  {
    "Molecule": "COc1ccc(NC(C)=O)cc1NC(=O)c1cnn2cccnc12",
    "Discrete label": "Condition not met"
  },
  {
    "Molecule": "COc1ccc(Cl)cc1NC(=O)c1csc2cnc(NCCO)nc12",
    "Discrete label": "Condition not met"
  },
  {
    "Molecule": "COc1cc2cc[nH]c2cc1NC(=O)c1csc2cncnc12",
    "Discrete label": "Condition met"
  },
  {
    "Molecule": "COCCOc1ccc(Cl)cc1NC(=O)c1cnn2cccnc12",
    "Discrete label": "Condition met"
  },
  {
    "Molecule": "CC(N)C1CCN(c2ccc(Cl)cc2NC(=O)c2cnn3cccnc23)C1 (stereo not drawn) [Example 148, hydrochloride]",
    "Discrete label": "Condition not met"
  },
  {
    "Molecule": "CN(CCCO)c1ccc(Cl)cc1NC(=O)c1cnn2cccnc12",
    "Discrete label": "Condition not met"
  }
]

* * *

# Target under test: IRAK-4 (Homo sapiens (Human))
# Assay method text: In vitro IRAK-4 kinase assay
# Type: biochemical
# Condition summary: purified recombinant IRAK-4, 50 uM ATP, 33P peptide phosphorylation
pIC50: −log10 of the molar value.

[
  {
    "Molecule": "COc1cc(C(=O)NCCCO)ccc1NC(=O)c1csc2cncnc12 [Example 113]",
    "Target under test": "IRAK-4 (Homo sapiens (Human))",
    "pIC50": 6.08
  },
  {
    "Molecule": "COc1cc(-c2ccccc2)ccc1NC(=O)c1cnn2cccnc12 [Example 165]",
    "Target under test": "IRAK-4 (Homo sapiens (Human))",
    "pIC50": 5.28
  },
  {
    "Molecule": "COCCCOc1ccc(Cl)cc1NC(=O)c1cnn2cccnc12 [Example 138]",
    "Target under test": "IRAK-4 (Homo sapiens (Human))",
    "pIC50": 5.62
  },
  {
    "Molecule": "COc1cnc2c(C(=O)Nc3cc(Cl)ccc3N3CCC(CN)CC3)cnn2c1 [Example 71]",
    "Target under test": "IRAK-4 (Homo sapiens (Human))",
    "pIC50": 6.60
  }
]

* * *

# Target under test: UniProtKB Q9NWZ3
# Assay method text: In vitro IRAK-4 kinase assay
# Condition summary: purified recombinant IRAK-4, 50 uM ATP, 33P peptide phosphorylation
pIC50: −log10 of the molar value.
Endpoint name: pIC50

[
  {
    "Compound": "COc1ccc(Cl)cc1NC(=O)c1csc2cnc(NCCNC(C)=O)nc12 [Example 175]",
    "Experimental value": 5.09
  },
  {
    "Compound": "COc1cc(C(=O)N(C)C)ccc1NC(=O)c1cnn2cccnc12 [Example 172]",
    "Experimental value": 5.12
  },
  {
    "Compound": "O=C(Nc1cc(Cl)ccc1N1CCCCC1)c1cnn2cccnc12 [Example 79]",
    "Experimental value": 6.50
  },
  {
    "Compound": "COc1cc(CO)ccc1NC(=O)c1cnn2cccnc12 [Example 177]",
    "Experimental value": 5.06
  }
]
